Provenance of the data: paper PMC5742070

- Test system: CYP3A
- Test: MDZ kinetics used for initial estimates
- Assay type: biochemical, rat
- Measurement parameters: rat, liver microsomes
Observed property: Km (µM)
Answers are plain numbers, in µM.

Entry Cc1ncc2n1-c1ccc(Cl)cc1C(c1ccccc1F)=NC2 — recorded Km = 10
